TARGET_OR_SYSTEM: human αvβ5 expressed on BaF3 cells (stably transfected with human αv and β5 subunits) (human, UniProt P06756 31-1048; P18084 24-799)
Sequence (P06756 31-1048 limits assumed, chain 1 of 2): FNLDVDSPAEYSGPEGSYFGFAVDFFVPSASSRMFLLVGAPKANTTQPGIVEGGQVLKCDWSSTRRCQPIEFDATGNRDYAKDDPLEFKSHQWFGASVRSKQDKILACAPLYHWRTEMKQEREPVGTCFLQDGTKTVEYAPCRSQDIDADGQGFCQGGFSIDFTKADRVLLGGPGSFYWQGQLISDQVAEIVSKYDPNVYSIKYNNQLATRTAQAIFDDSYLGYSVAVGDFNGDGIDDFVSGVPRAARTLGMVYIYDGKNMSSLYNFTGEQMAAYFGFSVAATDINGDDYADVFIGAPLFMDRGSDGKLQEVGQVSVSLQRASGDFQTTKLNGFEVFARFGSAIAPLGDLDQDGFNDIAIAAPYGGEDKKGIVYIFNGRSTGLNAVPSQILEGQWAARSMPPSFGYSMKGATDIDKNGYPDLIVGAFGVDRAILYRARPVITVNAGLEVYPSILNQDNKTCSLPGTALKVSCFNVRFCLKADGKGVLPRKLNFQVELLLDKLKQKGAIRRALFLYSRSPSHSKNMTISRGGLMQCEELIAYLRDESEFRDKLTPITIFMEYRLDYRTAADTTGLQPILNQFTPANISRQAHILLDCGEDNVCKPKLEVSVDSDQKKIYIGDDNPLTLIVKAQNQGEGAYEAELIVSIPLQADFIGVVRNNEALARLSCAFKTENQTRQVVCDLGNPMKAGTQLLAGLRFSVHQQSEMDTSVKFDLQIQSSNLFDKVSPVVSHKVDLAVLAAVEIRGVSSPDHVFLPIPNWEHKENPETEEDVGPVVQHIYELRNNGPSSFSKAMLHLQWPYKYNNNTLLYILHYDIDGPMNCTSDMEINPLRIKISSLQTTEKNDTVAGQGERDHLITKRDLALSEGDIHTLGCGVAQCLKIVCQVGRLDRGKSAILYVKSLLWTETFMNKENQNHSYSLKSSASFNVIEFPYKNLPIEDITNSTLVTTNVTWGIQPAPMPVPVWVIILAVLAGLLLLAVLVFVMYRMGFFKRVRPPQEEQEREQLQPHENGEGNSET
Sequence (P18084 24-799 limits assumed, chain 2 of 2): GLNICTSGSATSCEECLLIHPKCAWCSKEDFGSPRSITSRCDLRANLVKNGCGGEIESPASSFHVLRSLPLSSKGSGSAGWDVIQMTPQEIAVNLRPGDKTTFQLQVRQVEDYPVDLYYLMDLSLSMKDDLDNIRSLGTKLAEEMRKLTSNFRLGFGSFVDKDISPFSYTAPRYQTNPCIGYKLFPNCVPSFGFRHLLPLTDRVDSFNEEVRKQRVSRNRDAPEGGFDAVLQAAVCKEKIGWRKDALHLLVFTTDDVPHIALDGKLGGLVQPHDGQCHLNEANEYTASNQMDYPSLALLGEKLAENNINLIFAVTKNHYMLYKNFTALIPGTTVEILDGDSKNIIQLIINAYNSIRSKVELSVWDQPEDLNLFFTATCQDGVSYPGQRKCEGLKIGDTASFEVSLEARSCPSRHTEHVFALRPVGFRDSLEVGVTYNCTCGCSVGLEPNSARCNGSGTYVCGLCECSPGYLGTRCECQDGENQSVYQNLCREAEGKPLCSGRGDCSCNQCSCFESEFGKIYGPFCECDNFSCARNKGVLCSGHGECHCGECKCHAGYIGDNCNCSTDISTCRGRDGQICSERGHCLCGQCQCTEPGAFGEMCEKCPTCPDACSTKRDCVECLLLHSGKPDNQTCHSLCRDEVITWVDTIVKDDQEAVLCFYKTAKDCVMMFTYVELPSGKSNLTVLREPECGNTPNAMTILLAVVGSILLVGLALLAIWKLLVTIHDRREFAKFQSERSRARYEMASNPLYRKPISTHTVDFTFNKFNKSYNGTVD
PROTOCOL_NOTES: cell-based or functional assay
Below, each entry is listed with its recorded VN adhesion inhibition, αvβ5-BaF3 (IC50, nM).
MEASURE_NAME: VN adhesion inhibition, αvβ5-BaF3 (IC50, nM)

VH3/VL2 Agly-hIgG1(T299A) (antibody, V domains shown, also called H3/L2) VH: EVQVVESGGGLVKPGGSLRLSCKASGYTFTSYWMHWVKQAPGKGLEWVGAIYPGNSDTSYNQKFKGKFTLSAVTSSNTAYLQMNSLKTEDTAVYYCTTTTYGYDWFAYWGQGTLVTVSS VL: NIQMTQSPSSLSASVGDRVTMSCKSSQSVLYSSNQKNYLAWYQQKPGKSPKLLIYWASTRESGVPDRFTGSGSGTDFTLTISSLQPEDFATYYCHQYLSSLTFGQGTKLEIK
124
VH4/VL0 Agly-hIgG1(T299A) (antibody, V domains shown, also called H4/L0 (Agly-IgG1)) VH: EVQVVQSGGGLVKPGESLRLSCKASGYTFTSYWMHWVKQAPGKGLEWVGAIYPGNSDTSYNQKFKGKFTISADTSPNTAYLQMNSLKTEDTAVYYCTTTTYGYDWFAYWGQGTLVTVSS VL: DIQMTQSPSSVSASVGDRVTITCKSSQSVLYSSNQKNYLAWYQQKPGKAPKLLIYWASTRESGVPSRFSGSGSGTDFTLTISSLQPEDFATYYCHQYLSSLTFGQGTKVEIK
74.9
VH5/VL3 Agly-hIgG1(T299A) (antibody, V domains shown, also called H5/L3) VH: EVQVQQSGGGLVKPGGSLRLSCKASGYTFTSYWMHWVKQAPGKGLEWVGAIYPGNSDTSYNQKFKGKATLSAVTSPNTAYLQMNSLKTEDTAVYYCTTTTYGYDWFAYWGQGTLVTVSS VL: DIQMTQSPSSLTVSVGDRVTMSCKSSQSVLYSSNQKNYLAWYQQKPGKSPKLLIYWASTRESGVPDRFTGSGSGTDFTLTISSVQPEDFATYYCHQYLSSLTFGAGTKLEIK
72.2
VH0/VL2 Agly-hIgG1(T299A) (antibody, V domains shown, also called H0/L2) VH: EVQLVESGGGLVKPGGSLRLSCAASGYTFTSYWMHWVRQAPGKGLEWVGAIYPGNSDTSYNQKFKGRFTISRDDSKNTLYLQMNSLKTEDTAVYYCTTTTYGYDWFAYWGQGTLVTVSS VL: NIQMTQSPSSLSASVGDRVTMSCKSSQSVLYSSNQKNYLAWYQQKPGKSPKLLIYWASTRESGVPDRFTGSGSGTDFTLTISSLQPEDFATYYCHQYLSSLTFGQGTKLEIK
1970
VH2/VL3 Agly-hIgG1(T299A) (antibody, V domains shown, also called H2/L3) VH: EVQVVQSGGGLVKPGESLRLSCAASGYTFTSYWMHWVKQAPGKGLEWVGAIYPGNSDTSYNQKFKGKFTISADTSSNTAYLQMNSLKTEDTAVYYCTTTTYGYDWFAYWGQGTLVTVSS VL: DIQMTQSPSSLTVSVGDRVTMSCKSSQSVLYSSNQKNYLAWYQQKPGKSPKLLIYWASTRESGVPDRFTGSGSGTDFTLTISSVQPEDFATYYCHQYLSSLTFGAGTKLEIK
303

Measured values drawn from patent US20170362324A1 for this set.
